meta.source: the supplement of paper PMC10567573

B1: FBF1 (parent)
chain: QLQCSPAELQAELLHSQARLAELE

- Variants of: B1
- ASSAY PROTOCOL: protein stability index of a GFP-peptide fusion (GPS, HEK-293T) (PSI 1-6); higher = more stable;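 further: lentivirally expressed fusions sorted by FACS into six bins by GFP to DsRed ratio, PSI derived from sequencing read proportions per bin multiplied by bin number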
- EXPERIMENTAL CONDITIONS: c terminus: a fixed tail appended

- SEQUENCE STRING: "QLQCSPAELQAELLASQARLAELE [H15A]"
  protein stability index: 3.78
- SEQUENCE STRING: "QLQCSPAELQAELLFSQARLAELE [H15F]"
  protein stability index: 1.84
- SEQUENCE STRING: "QLQCSPAELQAELLHSQARLNELE [A21N]"
  protein stability index: 3.41
- SEQUENCE STRING: "QLQCSPAELQAELLHSQARLAYLE [E22Y]"
  protein stability index: 2.33
- SEQUENCE STRING: "QLQCSPAELQAELLHSQARMAELE [L20M]"
  protein stability index: 3.87
- SEQUENCE STRING: "QLQCSPAELQAEYLHSQARLAELE [L13Y]"
  protein stability index: 4.52
- SEQUENCE STRING: "QLQCSPAELQAPLLHSQARLAELE [E12P]"
  protein stability index: 4.04
- SEQUENCE STRING: "QLQCSPAELQAELLHCQARLAELE [S16C]"
  protein stability index: 4.23
- SEQUENCE STRING: "QLQCSPAELQAELLHSLARLAELE [Q17L]"
  protein stability index: 2.92
- SEQUENCE STRING: "QLQCSPAELQAFLLHSQARLAELE [E12F]"
  protein stability index: 3.56
- SEQUENCE STRING: "QQQCSPAELQAELLHSQARLAELE [L2Q]"
  protein stability index: 3.85
- SEQUENCE STRING: "QLQCSPAELLAELLHSQARLAELE [Q10L]"
  protein stability index: 2.17
- SEQUENCE STRING: "QLQCSPAYLQAELLHSQARLAELE [E8Y]"
  protein stability index: 2.25
- SEQUENCE STRING: "QLQCSPAELQAEWLHSQARLAELE [L13W]"
  protein stability index: 4.13
- SEQUENCE STRING: "QLQCSPAKLQAELLHSQARLAELE [E8K]"
  protein stability index: 2.79
- SEQUENCE STRING: "QLQCSPAELQAELLHSQARDAELE [L20D]"
  protein stability index: 4.91
- SEQUENCE STRING: "QLQCSPAELQAELLHSQARLAEVE [L23V]"
  protein stability index: 3.03
- SEQUENCE STRING: "QLQCSPAELQDELLHSQARLAELE [A11D]"
  protein stability index: 2.94
- SEQUENCE STRING: "QLQCSPAELQAELLHSQARNAELE [L20N]"
  protein stability index: 4.96
- SEQUENCE STRING: "QLQCSPAELQAEELHSQARLAELE [L13E]"
  protein stability index: 4.25
- SEQUENCE STRING: "QLQCSPAEQQAELLHSQARLAELE [L9Q]"
  protein stability index: 4.62
- SEQUENCE STRING: "QLQCSPEELQAELLHSQARLAELE [A7E]"
  protein stability index: 3.4
